Sourced from PubChem BioAssay AID933

- TEST SYSTEM: Thyrotropin receptor (Homo sapiens)
- METHOD NOTES: Secondary Concentration-Response Assay for Agonists of the Thyroid Stimulating Hormone Receptor: HTRF Activity Detection;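 for activation: HEK 293 cells stably expressing human TSHR with RO 20-1724 phosphodiesterase inhibitor; % of control where 0% means no effect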
- CONDITION: HEK293-TSHR cells, cAMP HTRF ratio, 30 min; series mostly up to 91.7 µM
Results filed as inconclusive are left out. Calls of active or inactive are those of the source. Calls come from the whole dose curve; as a rule, active = well fitted activation curve with a large enough effect in the signal ratio, with a control signal flat; inconclusive = small, poorly fitted or top-dose-only effect, or a change in a side signal; inactive = flat fitted curve, though single readings scatter; the % refers to the signal ratio.
METRIC NAME: activation

Please review the following examples before continuing.
COc1ccc(C2Nc3ccccc3C(=O)N2Cc2ccco2)cc1OC (stereo not given) : inactive
COc1ccc(C(=O)N(Cc2ccccc2)Cc2ccc(OC)c(COc3ccc(NC(C)=O)cc3)c2)c(O)c1 : inactive
Cc1occc1-c1nnc(SCC(=O)NCc2ccc3c(c2)OCO3)n1CC(C)C : 0.411% [at 0.00035 µM] (inactive)
COc1cccc2cc(C(=O)N(Cc3cccs3)Cc3cccs3)c(=O)oc12 : inactive

--- query ---
Task item: Item under review: COc1cccc(OCc2cc(C3Nc4ccccc4C(=O)N3Cc3ccco3)ccc2OC)c1 (stereo not given) . Reported activation?
Reply: inactive

====

- TEST SYSTEM: Thyrotropin receptor (Homo sapiens) (UniProt P16473)
- Sequence (P16473 whole entry, looked up): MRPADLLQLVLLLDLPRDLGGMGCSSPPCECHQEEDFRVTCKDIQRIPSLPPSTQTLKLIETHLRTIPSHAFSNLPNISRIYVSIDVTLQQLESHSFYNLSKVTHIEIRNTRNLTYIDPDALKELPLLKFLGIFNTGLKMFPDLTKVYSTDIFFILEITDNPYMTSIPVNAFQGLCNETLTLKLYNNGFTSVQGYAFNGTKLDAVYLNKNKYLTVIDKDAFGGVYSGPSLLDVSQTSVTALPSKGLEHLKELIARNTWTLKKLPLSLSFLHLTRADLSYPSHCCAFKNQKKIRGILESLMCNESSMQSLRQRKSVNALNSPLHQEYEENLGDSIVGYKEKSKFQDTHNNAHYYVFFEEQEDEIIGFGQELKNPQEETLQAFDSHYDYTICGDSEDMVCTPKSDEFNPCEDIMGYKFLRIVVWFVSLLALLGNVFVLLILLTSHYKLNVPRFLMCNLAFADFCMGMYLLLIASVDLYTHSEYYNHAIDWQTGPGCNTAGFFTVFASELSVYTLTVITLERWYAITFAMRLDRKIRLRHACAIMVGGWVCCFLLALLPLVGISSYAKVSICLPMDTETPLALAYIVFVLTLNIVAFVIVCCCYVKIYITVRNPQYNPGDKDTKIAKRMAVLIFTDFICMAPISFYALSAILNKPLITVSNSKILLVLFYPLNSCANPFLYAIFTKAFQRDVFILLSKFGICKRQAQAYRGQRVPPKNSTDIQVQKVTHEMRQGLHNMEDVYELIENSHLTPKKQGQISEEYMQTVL
- METHOD NOTES: Secondary Concentration-Response Assay for Agonists of the Thyroid Stimulating Hormone Receptor: HTRF Activity Detection;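 for activation: HEK 293 cells stably expressing human TSHR with RO 20-1724 phosphodiesterase inhibitor; % of control where 0% means no effect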
- CONDITION: HEK293-TSHR cells, cAMP HTRF ratio, 30 min; series mostly up to 91.7 µM
Results filed as inconclusive are left out. The source made the active and inactive calls. Calls follow the shape of the dose curve; as a rule, active = well fitted activation curve with a large enough effect in the signal ratio, with a control signal flat; inconclusive = small, poorly fitted or top-dose-only effect, or a change in a side signal; inactive = flat fitted curve, though single readings scatter; the % refers to the signal ratio.
METRIC NAME: activation

Please review the following examples before continuing.
O=C1c2ccccc2NC(c2ccccc2)N1Cc1ccco1 (stereo unspecified) : inactive
COc1ccc(C2Nc3ccccc3C(=O)N2Cc2ccco2)cc1COc1ccc([N+](=O)[O-])cc1 (stereo unspecified) : inactive
CCOC(=O)c1ccccc1OCc1cc(C2Nc3ccccc3C(=O)N2c2cccc3ccccc23)ccc1OC (stereo unspecified) : inactive
COc1cc(OC)cc(C(=O)N(Cc2ccco2)Cc2cccs2)c1 : inactive

Task item: Item under review: COCCNC(=O)C(c1ccccc1)N(Cc1cccs1)C(=O)Cn1nnc2ccccc21 (stereo unspecified) . Reported activation?
Reply: -0.712% [at 0.00035 µM] (inactive)

Task item: Item under review: COc1ccc(-c2ccc(-c3noc(C)n3)c(OC)n2)cc1 . Reported activation?
Reply: -0.214% [at 0.00035 µM] (inactive)

Task item: Item under review: CC(c1ccco1)N(C(=O)c1ccc(Cl)s1)c1ccccn1 (stereo unspecified) . Reported activation?
Reply: 0.422% [at 0.00035 µM] (inactive)

Task item: Item under review: O=C1c2ccccc2NC(c2ccc(F)cc2)N1Cc1ccco1 (stereo unspecified) . Reported activation?
Reply: inactive

====

- TEST SYSTEM: Thyrotropin receptor (Homo sapiens)
- METHOD NOTES: Secondary Concentration-Response Assay for Agonists of the Thyroid Stimulating Hormone Receptor: HTRF Activity Detection; note: potency is the fitted concentration of half-maximal effect;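 for activation: HEK 293 cells stably expressing human TSHR with RO 20-1724 phosphodiesterase inhibitor; % of control where 0% means no effect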
- CONDITION: HEK293-TSHR cells, cAMP HTRF ratio, 30 min; series mostly up to 91.7 µM
- Experimental: NIH Chemical Genomics Center [NCGC] NIH Molecular Libraries Screening Centers Network [MLSCN] PI Name: Dr. Marvin Gershengorn, NIH Confirmation of Thyroid Stimulating Hormone Receptor Agonists […] A confirmatory assay of putative TSHR agonists was conducted on a different TSHR transfected HEK 293 cell line, using an orthogonal detection technology to measure cAMP stimulation: antibody-based Homogeneous Time Resolved Fluorescence (HTRF). […] Homogeneous Time Resolved Fluorescence (HTRF) cAMP Assay. […]
Records with an inconclusive call do not appear. Activity calls are given as the source filed them. The call rests on the fitted dose curve; in most records, active means well fitted activation curve with a large enough effect in the signal ratio, with a control signal flat; inconclusive means small, poorly fitted or top-dose-only effect, or a change in a side signal; inactive means flat fitted curve, though single readings scatter; the % refers to the signal ratio.
Would you mind telling me the reported Potency of each entry?

Task item: Recall the recorded Potency for COc1ccc(CN(Cc2ccccc2)C(=O)c2ccc(O)cc2)cc1COc1ccc(NC(C)=O)cc1 with Thyrotropin receptor (Homo sapiens) and state it.
Reply: 28.2 µM (active)

Task item: Recall the recorded Potency for COc1ccc(C2Nc3ccccc3C(=O)N2Cc2ccc(Cl)cc2)cc1COc1ccc(NC(C)=O)cc1 (stereo not drawn) with Thyrotropin receptor (Homo sapiens) and state it.
Reply: 3.16 µM (active)

Task item: Recall the recorded Potency for COc1ccc(C2Nc3ccc(NC(=O)CO)cc3C(=O)N2Cc2cccc(Cl)c2)cc1COc1ccc(NC(C)=O)cc1 (stereo not drawn) with Thyrotropin receptor (Homo sapiens) and state it.
Reply: 5.62 µM (active)
